# target.desc: human RORγt LBD (Homo sapiens, UniProt P51449)
# experimental.details: RORγt (LBD) reporter assay in HEK293T cells
Task for the reader: assign each of the following compounds its reported IC50.

COc1nc2ccc(C(O)(c3ccc(C)nc3C)c3cnnn3C)cc2c(C#N)c1Cc1ccc(F)cc1 (single isomer, unassigned) [Example 49b] | ~3 µM
COc1nc2ccc(C(N)(c3ccc(C(F)(F)F)nc3)c3cncn3C)cc2c(Cl)c1Cc1ccccc1 (single isomer, unassigned) [Example 120b] | > 6 µM
COc1nc2ccc(C(O)(c3ccc(C)nc3C)c3cnnn3C)cc2c(Cl)c1Cc1ccc(F)cc1 (single isomer, unassigned) [Example 48c] | ~0.08 µM
Cn1cncc1C(O)(c1ccc(C(F)(F)F)nc1)c1ccc2nc(-c3nccn3C)c(Cc3ccccc3)c(Cl)c2c1 (single isomer, unassigned) [Example 113c] | ~2 µM

Please state IC50 for every compound in the list that follows.
1. COc1c(Cc2ccccc2)c(C(F)(F)F)nc2ccc(C(O)(c3ccc(C(F)(F)F)nc3)c3cncn3C)cc12 (stereo not shown) [Example 106a]
2. COc1nc2ccc(C(O)(c3ccc(C)nc3C)c3cnnn3C)cc2c(Cl)c1Cc1ccc(F)cc1 (single isomer, unassigned) [Example 48b]
3. COc1nc2ccc(C(N)(c3ccc(C(F)(F)F)nc3)c3cncn3C)cc2c(Cl)c1Cc1ccccc1 (single isomer, unassigned) [Example 120c]

["~4 µM", "~6 µM", "~6 µM"]

====

# target.desc: human RORγt ligand binding domain (RORγt LBD) (Homo sapiens, UniProt P51449)
# Construct: His-tag (N); TurboTEV protease cleavage site (ENLYFQG) (N)
# Sequence (P51449 with tags, fused parts or gaps): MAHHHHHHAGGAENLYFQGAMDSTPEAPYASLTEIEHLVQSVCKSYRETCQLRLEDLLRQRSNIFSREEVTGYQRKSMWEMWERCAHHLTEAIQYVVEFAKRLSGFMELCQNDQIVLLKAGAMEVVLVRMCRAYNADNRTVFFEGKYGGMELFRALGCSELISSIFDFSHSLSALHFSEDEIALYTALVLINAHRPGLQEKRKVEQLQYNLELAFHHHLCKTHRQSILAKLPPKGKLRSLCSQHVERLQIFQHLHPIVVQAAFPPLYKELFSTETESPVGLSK
# experimental.details: RORγt ThermoFluor assay (ligand binding affinity from protein thermal stability)
readout.type: Kd (nM)
Numbers only, in nM.

Example results:
Cn1cncc1C(O)(c1ccc(C(F)(F)F)nc1)c1ccc2nc(-n3cccn3)c(Cc3ccccc3)c(C#N)c2c1 (single isomer, unassigned) [Example 114b] | 120
COc1nc2ccc(C(N)(c3ccc(C(F)(F)F)nc3)c3cncn3C)cc2c(Cl)c1Cc1ccccc1 (single isomer, unassigned) [Example 120b] | 130
COc1nc2ccc(C(O)(c3ccc(Cl)cc3)c3cncn3C)cc2c(Cl)c1Cc1ccc(C(F)(F)F)nc1 (single isomer, unassigned) [Example 39b] | 1100

Here is another compound to look at.
Can you share its Kd? I mean this compound: COc1nc2ccc(C(O)(c3ccccn3)c3cncn3C)cc2c(Cl)c1Cc1ccc(C(F)(F)F)cc1 (centres unmarked)
53

Data origin, for the record: patent US9284308B2
